quantity-measured: boiling point (°C)
# unit: °C | format: bare number

Identify measured boiling point corresponding to FC(F)(Br)C(F)(F)C(F)(F)C(F)(F)C(F)(F)C(F)(F)Br
142

====

quantity-measured: melting point (°C)
# unit: °C | format: bare number

* CCC(C)N (centres undefined) | -104
* Cc1ccc(C(=O)O)o1 | 110
* CCOC(=O)C1(C)OC(=O)N(c2cc(Cl)cc(Cl)c2)C1=O (centres undefined) | 113
* Brc1ccc(Sc2ccc(Br)cc2)cc1 | 115
* CCOc1cc(C=O)ccc1O | 77.5

Identify measured melting point corresponding to CC(=O)OCCC(C)C
-78.5

Identify measured melting point corresponding to CC=Cc1ccccc1
-28.2

Identify measured melting point corresponding to COc1ccc2c(c1)C(=O)N(CCc1ccc(S(=O)(=O)NC(=O)NC3CCCCC3)cc1)C(=O)C2(C)C
181

Identify measured melting point corresponding to Cc1nc(C)c(C)nc1C
85

Identify measured melting point corresponding to Nc1ccc(Cl)c(Cl)c1Cl
73

Identify measured melting point corresponding to Clc1ccc2oc3c(Cl)c(Cl)c(Cl)c(Cl)c3c2c1
178

====

Record Fulfilled whenever log10 Henry constant (atm·m³/mol) is at -4 or higher; record Not fulfilled when lower.

Solved entries (count: 8):
* CCCl | Fulfilled
* Clc1cc(Cl)c(Cl)c(Cl)c1 | Fulfilled
* Clc1ccc(-c2c(Cl)cccc2Cl)c(Cl)c1 | Fulfilled
* FC(Br)C(F)(F)F (stereo unspecified) | Fulfilled
* Clc1cccc(-c2c(Cl)cc(Cl)cc2Cl)c1 | Fulfilled
* CCCCCl | Fulfilled
* CCC(C)=O | Not fulfilled
* CC(C)CC(=O)O | Not fulfilled

log10 Henry constant (atm·m³/mol) >= -4 for CCOC=O ?
Fulfilled

log10 Henry constant (atm·m³/mol) >= -4 for CCOP(=S)(OCC)Oc1cc(C)nc(C(C)C)n1 ?
Not fulfilled

log10 Henry constant (atm·m³/mol) >= -4 for c1ccccc1 ?
Fulfilled

log10 Henry constant (atm·m³/mol) >= -4 for Clc1cc(Cl)c(Cl)c(-c2ccc(Cl)c(Cl)c2Cl)c1 ?
Not fulfilled

log10 Henry constant (atm·m³/mol) >= -4 for BrC(Br)Br ?
Fulfilled

log10 Henry constant (atm·m³/mol) >= -4 for CN1CCCC1 ?
Not fulfilled

log10 Henry constant (atm·m³/mol) >= -4 for CC(=O)OCCC(C)C ?
Fulfilled

====

quantity-measured: melting point (°C)
# unit: °C | format: bare number

- CN(C)C(=O)Nc1ccccc1: 134
- CCc1ccccc1[N+](=O)[O-]: -12.3
- O=C(Nc1cc(Cl)cc(Cl)c1O)c1c(O)c(Cl)cc(Cl)c1Cl: 210
- O=[N+]([O-])c1ccc(Br)cc1: 127
- c1ccc2c(c1)cc1c3ccccc3c3cccc4ccc2c1c43: 234

Identify measured melting point corresponding to NC(=O)COc1ccccc1
102

Identify measured melting point corresponding to CCCCCCCCCCCCCCCCCCOC(C)=O
34.5

Identify measured melting point corresponding to CCOC(=O)COc1ccc2c(=O)cc(-c3ccccc3)oc2c1
124

Identify measured melting point corresponding to C=CCCCCCCCCCCCC
-12

Identify measured melting point corresponding to COCCOc1cnc(NS(=O)(=O)c2ccccc2)nc1
153

Identify measured melting point corresponding to CN(C)c1ccc(N=Nc2ccc([N+](=O)[O-])cc2)cc1
236

Identify measured melting point corresponding to Cc1cc[nH]c(=O)c1
130

Identify measured melting point corresponding to Ic1ccc(I)c(I)c1I
136

Identify measured melting point corresponding to CCC(C)n1c(=O)[nH]c(C)c(Br)c1=O (stereo unspecified)
158

Identify measured melting point corresponding to CC(C)(C)c1cc(C(=O)O)cc(C(C)(C)C)c1O
208

Identify measured melting point corresponding to Nc1cc2c3ccccc3ccc2c2ccccc12
210

Identify measured melting point corresponding to O=C(O)CNc1ccccc1
128

Identify measured melting point corresponding to O=C(O)COc1ccc(Cl)cc1CO
141

====

Record MET whenever log10 vapour pressure (mmHg) is at -0.1 or higher; record NOT MET when lower.

Solved entries (count: 5):
* CC(=O)OCCOC(C)=O | NOT MET
* C1CSCCS1 | MET
* C[Si](C)(C)O[Si](O[Si](C)(C)C)(O[Si](C)(C)C)O[Si](C)(C)C | NOT MET
* COC1CCC=CO1 (centres undefined) | MET
* Clc1ccc(Cl)c(-c2ccccc2Cl)c1 | NOT MET

log10 vapour pressure (mmHg) >= -0.1 for O=CC=Cc1ccccc1 ?
NOT MET

log10 vapour pressure (mmHg) >= -0.1 for Brc1c(Br)c(Br)c(-c2c(Br)c(Br)c(Br)c(Br)c2Br)c(Br)c1Br ?
NOT MET

log10 vapour pressure (mmHg) >= -0.1 for Cc1ccsc1 ?
MET

log10 vapour pressure (mmHg) >= -0.1 for CC(C)N ?
MET

log10 vapour pressure (mmHg) >= -0.1 for CC(C)C(C(=O)OC(C#N)c1cccc(Oc2ccccc2)c1)c1ccc(Cl)cc1 (centres undefined) ?
NOT MET

log10 vapour pressure (mmHg) >= -0.1 for CC(C)(C)[C@@H](O)[C@@H](Cc1ccc(Cl)cc1)n1cncn1 (single isomer, unassigned) ?
NOT MET

====

quantity-measured: boiling point (°C)
# unit: °C | format: bare number

Example cases with answers are listed next.
• OCC(F)(F)C(F)(F)C(F)(F)F = 95
• ClC(Br)C(Cl)Br (configuration not stated) = 195
• CCOC(=O)c1ccccc1Br = 254
• Nc1ccccc1S = 234
• CCOC(=O)c1cccc([N+](=O)[O-])c1 = 297

Identify measured boiling point corresponding to CCOC(=O)C1CC=CCC1 (configuration not stated)
194

Identify measured boiling point corresponding to CCCC(C)(CC)C(C)C (configuration not stated)
166

Identify measured boiling point corresponding to CC(C)c1cccc(C(C)C)c1O
256

Identify measured boiling point corresponding to c1ccc(C(c2ccccc2)(c2ccccc2)c2ccccc2)cc1
431

Identify measured boiling point corresponding to CCC[C@](C)(O)CC
143

Identify measured boiling point corresponding to C=O
-19.1

Identify measured boiling point corresponding to CC(C)(C)c1ccncc1
196

====

// classify: if (boiling point < 200 °C) MET else NOT MET

* CCOC(=O)CC1CCCCC1 | NOT MET
* Brc1cnc2ccccc2c1 | NOT MET
* Nc1ccccc1Br | NOT MET

# check: boiling point < 200 °C for C#CC(C)=CC
MET

# check: boiling point < 200 °C for c1ccc2nccnc2c1
NOT MET

# check: boiling point < 200 °C for C=C(CC)C(C)CC (stereo not drawn)
MET

# check: boiling point < 200 °C for CC1OC(C)OC(C)O1 (stereo not drawn)
MET

# check: boiling point < 200 °C for FC(F)(F)C(F)(Cl)C(F)(Cl)C(F)(F)F (stereo not drawn)
MET

# check: boiling point < 200 °C for C=CC(OC)OC
MET

====

quantity-measured: log10 Koc (L/kg)

Example cases with answers are listed next.
• CCC(C)c1cc([N+](=O)[O-])cc([N+](=O)[O-])c1O (centres undefined) = 2.7
• CCCCN = 1.88
• CCOP(=S)(OCC)SCCS(=O)(=O)CC = 3.22
• Clc1cc(Cl)c(-c2cccc(Cl)c2Cl)cc1Cl = 5.69
• COC(=O)c1ccccc1S(=O)(=O)NC(=O)Nc1nc(OC(F)F)cc(OC(F)F)n1 = 1.08

Identify measured log10 Koc (L/kg) corresponding to CN(C)C(=O)Nc1ccccc1
1.4

Identify measured log10 Koc (L/kg) corresponding to c1ccc2cc3c(cc2c1)-c1cccc2cccc-3c12
4.34

Identify measured log10 Koc (L/kg) corresponding to COC(=O)c1ccccc1C(=O)OC
1.6

Identify measured log10 Koc (L/kg) corresponding to CCCCN(CC)C(=O)SCCC
2.8

Identify measured log10 Koc (L/kg) corresponding to Nc1cc(Cl)c(Cl)c(Cl)c1Cl
3.03

Identify measured log10 Koc (L/kg) corresponding to CC(=O)Nc1cccc(Cl)c1
1.86

Identify measured log10 Koc (L/kg) corresponding to Clc1ccc(Cl)c(-c2c(Cl)ccc(Cl)c2Cl)c1Cl
6.01

Identify measured log10 Koc (L/kg) corresponding to Cc1ccc2c(c1N)C(=O)c1ccccc1C2=O
3.9

Identify measured log10 Koc (L/kg) corresponding to CNC(=O)Nc1cccc(Cl)c1
1.93

====

Entries annotated with measured boiling point
# unit: °C | format: bare number

Example cases with answers are listed next.
- CCCCC1CCCC1: 157
- C[C@H](O)CCc1ccccc1: 239
- CCCCC(C)S (stereo not drawn): 142
- COc1ccc(C(c2ccc(OC)cc2)C(Cl)(Cl)Cl)cc1: 346
- Cc1ccc(O)c(Cl)c1C: 188

Identify measured boiling point corresponding to COCC(=O)OC
131

Identify measured boiling point corresponding to c1ccc(-c2ccccc2-c2ccccc2)cc1
332
